These measurements were taken from paper PMC12040169.

assay_protocol: in vitro
cond: human, hela cells, % viability
# key: entry, value: viability at 28.5 h, 10 µM
// unit must come after the numeric part

Field: example entries. Status: answers known.
CC(C)c1nccn1CCCNC(=O)N1CCCC(c2ccncn2)C1 (stereo not drawn) : 88.7%
O=C(NCCCn1ccnc1)c1cc2ncc(Br)cn2n1 : 97.6%
Cc1cc(N2CCCN(C(=O)CCCOc3ccccc3)CC2)ccn1 : 86.6%

**Query** Need viability at 28.5 h, 10 µM, item `CC(=O)N1CCC(Cn2nc(-c3ccc(F)cc3)ccc2=O)CC1`
**Result** 101%

**Query** Can you look up the measured viability at 28.5 h, 10 µM of `Cc1ncsc1C(=O)NCc1ccc(S(=O)(=O)N2CCCCC2)cc1` for me?
**Result** 89.9%

###

// reported viability at 28.5 h, 10 µM per item
assay_protocol: in vitro
cond: human, hela cells, % viability
A number alone suffices; assume %.

Examples from the recorded data:
CC(C)(C)C(=O)CN1CCC2(CC1)NCCc1c2[nH]c2cc(F)ccc12 [CBK039568] : 90.2
CCc1cc2cc3c(cc2nc1SCC(=O)Nc1cccc(C(C)=O)c1)OCO3 [CBK108551] : 92.6
C[C@@H](Cn1nc2c(cc1=O)CCCC2)NC(=O)c1ccco1 [CBK284559] : 92.2

**Query** What does the data say about its viability at 28.5 h, 10 µM? Entry: O=C(CC1CCCC1)NCCn1nc(-c2cccs2)ccc1=O [CBK283841]
**Result** 91.8

###

assay_protocol: in vitro
cond: human, hela cells, % viability
Listed below: viability at 28.5 h, 10 µM values for each entry.
Could you give the number and then its unit, please?

Known results for molecules:
O=C(CCn1c(C(F)(F)F)cc2cccnc21)NC1CCCOC1 (centres unmarked) [CBK284867] : 109%
COc1ncccc1C(=O)N1CCc2ccccc2C1 [CBK200336] : 96.9%
N#Cc1c(NC(=O)c2cc(S(=O)(=O)N3CCCCC3)c(Cl)cc2Cl)sc2c1CCCC2 [CBK264579] : 104%
Nc1cc2cccnc2nc1-c1ccncc1 [CBK067601] : 96.5%
Oc1c(-c2cccc(C(F)(F)F)c2)cnc2cccnc12 [CBK081290] : 87.1%
C#C[C@H]1C[N@@]2CC[C@H]1C[C@@H]2CNS(=O)(=O)c1ccc(NC(C)=O)cc1 [CBK288752] : 103%
O=C(CSc1nnnn1-c1ccccc1)Nc1nsc(-c2ccccc2)n1 [CBK267192] : 108%

**Query** Would you kindly share the measured viability at 28.5 h, 10 µM for O=C1N=C(NCC2CCCCC2)OC1Cc1ccccc1 (centres unmarked) [CBK067023] ?
**Result** 94.1%

###

assay_protocol: in vitro
cond: human, hela cells, % viability
parameter_measured: viability at 28.5 h, 10 µM (%)
Value expressed in %; do not type the unit.

Before answering, review these 4 worked examples.
Cc1nc(CC(=O)Nc2ccc(N3CCOCC3)cc2)cs1 : 95.8
O=C(c1cnc[nH]1)N1CCn2nc(C(O)Cc3ccccc3)cc2C1 (stereo not drawn) : 109
O=C(c1ccc2[nH]ccc2c1)N1CCN(c2ncccn2)CC1 : 87
OC1(c2cccnc2F)CCN(Cc2ccc(Cl)cc2)CC1 : 102

**Query** Look up viability at 28.5 h, 10 µM for this compound: `COc1ccc(-c2cc(N3CCN(CCN4CCCC4)CC3)ncn2)cc1OC`
**Result** 94.5

**Query** I'd like to know its viability at 28.5 h, 10 µM. The compound in question is COc1ccc(C2C(C(=O)c3ccc(Cl)cc3)=C(O)C(=O)N2CCN(C)C)cc1OC (stereo not drawn)
**Result** 103

###

assay_protocol: in vitro
cond: human, hela cells, % viability
# strict inequality: viability at 28.5 h, 10 µM < 90% yields class 1, everything else yields class 0

CCOc1cc(CNCc2ccccn2)cc(Cl)c1OCC [CBK268516C] : class 0

**Query** Regarding Cn1c(CO)nnc1[C@H]1C[C@@H](NC(=O)CCc2ccc(F)cc2F)C1 [CBK306796] , kindly confirm whether its viability at 28.5 h, 10 µM is beneath 90%.
**Result** class 1

**Query** # TODO verify viability at 28.5 h, 10 µM < 90% strictly for this compound: CSc1ncc(Cl)c(C(=O)Nc2sc3c(c2C(=O)NCc2cccnc2)CCC3)n1 [CBK268710]
**Result** class 0

**Query** Record COc1cnc(-c2ccsc2)c(NC(=O)CC(C)C)n1 [CBK145292] : is its viability at 28.5 h, 10 µM strictly below 90%?
**Result** class 0

**Query** In plain terms, does CCc1c(C(=O)NCCn2ccnc2C)[nH]c2ccc(F)cc12 [CBK283314] come in under 90% for viability at 28.5 h, 10 µM?
**Result** class 0

**Query** I'd appreciate it if you could check whether O=C1CC(Cc2ccccc2)C(=O)N1CCCn1ccnc1 (centres unmarked) [CBK265123G] has viability at 28.5 h, 10 µM smaller than 90%.
**Result** class 0

**Query** For CN(CC(=O)O)C(=O)OCc1ccccc1 [CBK012752] , is the recorded viability at 28.5 h, 10 µM below the cut-off of 90%?
**Result** class 0

**Query** viability at 28.5 h, 10 µM strictly < 90% for this compound? CCc1cc(=O)oc2cc(OCC(=O)O)c(Cl)cc12 [CBK265182]
**Result** class 0

**Query** API: query returns whether the compound falls strictly under 90% in viability at 28.5 h, 10 µM. Query: O=C(O)c1cccc(Cn2c(C3CC3)n[nH]c2=S)c1 [CBK288401]
**Result** class 1

**Query** Threshold test, viability at 28.5 h, 10 µM < 90%: O=C(CCc1ccccc1)Nc1cccc2nsnc12 [CBK265680]
**Result** class 1

**Query** Quick check: does Cc1ccc(-c2n[nH]c(=S)n2CCC(=O)N(C)Cc2ccc(N3CCCCC3)cc2)cc1 [CBK297904] have viability at 28.5 h, 10 µM under 90%?
**Result** class 0

###

assay_protocol: in vitro
cond: human, hela cells, % viability
parameter_measured: viability at 28.5 h, 10 µM (%)
Numeric answer only, unit % assumed.

Answered cases to consult:
CCN(C)Cc1cccc(CNc2ncnc3c2cnn3CCC#N)c1 : 92.2
CN(C(=O)CN1CSCC1=O)c1nc2c(s1)CC(c1ccccc1)CC2 (stereo not shown) : 91.6
c1ccc(-c2cnc3c(N4CCCC4)nc(-c4cccnc4)cn23)cc1 : 86.7

**Query** Would you kindly share the measured viability at 28.5 h, 10 µM for `Cc1cc(C23CC4CC(CC(C(=O)O)(C4)C2)C3)c(C)cc1C12CC3CC(CC(C(=O)O)(C3)C1)C2` ?
**Result** 112

**Query** Could you tell me which viability at 28.5 h, 10 µM is on file for `O=C(O)CSCC(=O)Nc1ccc(Cl)cn1` ?
**Result** 86.5

**Query** Fill in: viability at 28.5 h, 10 µM of CCN(CC)C(=O)c1ccc(N)cc1C [CBK022686C] is ___
**Result** 93.5

**Query** Look up viability at 28.5 h, 10 µM for this compound: `Cc1cc(Cl)ccc1NC(=O)COC(=O)c1ccccc1I`
**Result** 89.6

**Query** Form field: reported viability at 28.5 h, 10 µM of `CC1(C)CC(NC(=O)c2cc([N+](=O)[O-])ccc2Cl)CC(C)(C)N1`
**Result** 93.7

**Query** Look at this compound and give its reported viability at 28.5 h, 10 µM. O=C(O)C1CC=CCC1C(=O)NCCCCc1ccccc1 (stereo not shown)
**Result** 98.7

**Query** So what's the measured viability at 28.5 h, 10 µM for this one? CCc1nccn1CCC(=O)NC(c1ccc(C)cc1)c1cccnc1 (stereo not shown)
**Result** 103

**Query** Give the measured viability at 28.5 h, 10 µM of Cc1ccnc2c1C(=O)C1(CC2)CCN(S(=O)(=O)c2c(C)noc2C)CC1 [CBK059557T] .
**Result** 80.4

**Query** Value lookup for viability at 28.5 h, 10 µM; key = CSCCC(=O)N1CCC2(CCN(Cc3ccccc3)C2)C1 (stereo not shown)
**Result** 93.8

**Query** Item under review: `Cc1csc(NC(=O)CSc2nnc3[nH]c(=O)cc(C)n23)n1` . Reported viability at 28.5 h, 10 µM?
**Result** 81.7

###

assay_protocol: in vitro
cond: human, hela cells, % viability
# key: entry, value: viability at 28.5 h, 10 µM
Give the value, in units of %, as a plain number.

COc1ccc(F)c(CN(CC2CCNCC2)C(=O)Nc2c(C)noc2C)c1 : 112

**Query** Please report the recorded viability at 28.5 h, 10 µM for COc1ccc(C(=O)N[C@@H]2CC[C@@]3(c4ccc(OC)c(OC)c4)CCN(C)[C@H]3C2)c(OC)c1 [CBK074247T] .
**Result** 91.7

**Query** Fill blank: measured viability at 28.5 h, 10 µM of the molecule O=[N+]([O-])c1ccc(CN2CCN(c3nccnc3OCCN3CCOCC3)CC2)cc1 [CBK082892T] is ____.
**Result** 99.8

**Query** Entry `COc1ccc(OCC(=O)Nc2cccc(-c3nnc4c5ccccc5c(C)nn34)c2)cc1` : reported viability at 28.5 h, 10 µM = ?
**Result** 105

**Query** Any idea what viability at 28.5 h, 10 µM was measured for `Cn1ccc2cc(NS(=O)(=O)c3ccc4[nH]c(=O)[nH]c(=O)c4c3)ccc21` ?
**Result** 95.4

**Query** Query (molecule): `Cc1ccc2cc(CN(Cc3ccco3)S(C)(=O)=O)c(O)nc2c1` ; field requested: viability at 28.5 h, 10 µM
**Result** 105

**Query** Param item = `Nc1ccn([C@H]2C[C@@H](O)[C@@H](CO)O2)c(=S)n1` ; retrieve measured viability at 28.5 h, 10 µM.
**Result** 91.4

**Query** Bench note: what viability at 28.5 h, 10 µM did `Cc1cc(-c2nccnc2NCc2cccc(Cl)c2)cc(C)c1O` show?
**Result** 87.4

**Query** Entry COc1cccc(C(NC(=O)C2CCN(C(=O)c3ccccc3)CC2)c2ccccn2)c1 (stereo not drawn) has what viability at 28.5 h, 10 µM?
**Result** 103

**Query** I have this molecule here, `Cc1cc(NC(=O)CN(C)Cc2ccc(Br)cc2)on1` , and I need its recorded viability at 28.5 h, 10 µM.
**Result** 97.3

**Query** What value of viability at 28.5 h, 10 µM has been recorded for this entry: `COc1ccc(-c2ccc(CCC(=O)O)n2NC(N)=S)cc1`
**Result** 102

**Query** What value of measured viability at 28.5 h, 10 µM is listed for `Cc1ccc(-c2cc(=O)c3cc(OCC(=O)Nc4sc5c(c4C#N)CCCC5)ccc3o2)cc1` ?
**Result** 96.6

**Query** Name the recorded viability at 28.5 h, 10 µM for `Sc1nnc(COc2ccccc2)n1/N=C/c1ccccn1` .
**Result** 102

**Query** State the recorded viability at 28.5 h, 10 µM for this entry: `C[C@]12CN(Cc3ccccc3)C[C@H]1CNc1ccccc1C(=O)N2`
**Result** 94.1

**Query** Bench note: what viability at 28.5 h, 10 µM did `Cc1cccc(C(=O)NC(=S)Nc2cccc(C(=O)O)c2)c1` show?
**Result** 121

**Query** // viability at 28.5 h, 10 µM lookup, key: `CNS(=O)(=O)c1ccc(C)c(NC(C)=O)c1C`
**Result** 88.5

**Query** Recorded viability at 28.5 h, 10 µM of `CCOC(=O)c1c(/N=C/c2cc(I)cc(I)c2O)sc2c1CCN(Cc1ccccc1)C2` , please.
**Result** 106

**Query** Please give the measured viability at 28.5 h, 10 µM for this molecule: O=C(c1cccnc1)N1CCN(Cc2cccc(Oc3ccccc3)c2)CC1 [CBK263326G]
**Result** 101
